Catalogue of log10 MIC readings, one per entry.
- Test system: Staphylococcus aureus bacteria (ATCC 9604 SV)
- test: Minimal inhibitory concentration (MIC), broth microdilution
- Type: cell-based
- condition.details: Staphylococcus aureus ATCC 9604 SV, 24 h at 37° C.
Scale: log10; quantity: MIC; unit before log: µg/mL

Record excerpt, results attached:
O=C1C(=Cc2ccoc2)C(c2ccccc2)=NN1c1cc(Cl)cc(Cl)c1 | 0.38
O=C(Nc1cc(C(F)(F)F)cc(C(F)(F)F)c1)Nc1nc(-c2ccc(OC(F)F)cc2)cs1 | 0.79
O=C(NCc1cccc(Cl)c1)Nc1nc(-c2ccc(F)cc2F)cs1 | 0.98
O=C(Nc1cc(Cl)cc(Cl)c1)Nc1cc(-c2ccncc2)nn1-c1ccc(Br)cc1 | -0.12

Give a short answer stating reported log10 MIC for CC(NC(=O)Nc1nc(-c2ccc(Br)cc2)cs1)C(O)c1ccccc1 (stereo not shown) .
1.03

Retrieve log10 MIC measured for CCC1=NN(c2cc(Cl)cc(Cl)c2)C(=O)C1=Cc1cccc(C(=O)N2CCN(C)CC2)c1 and print it.
1.07

Note log10 MIC for the molecule shown: O=C(Nc1cc(C(F)(F)F)cc(C(F)(F)F)c1)Nc1nc(CCc2ccccc2)cs1
1.37

Input O=C(Nc1cc(Cl)cc(Cl)c1)Nc1cc(-c2cccnc2)nn1-c1ccc(Br)cc1 , output reported log10 MIC.
0.48

For CCOC(=O)C(=O)c1csc(NC(=O)Nc2cc(C(F)(F)F)cc(C(F)(F)F)c2)n1 , write its log10 MIC.
1.06

State, in one line, measured log10 MIC of CCC1=NN(c2cc(Cl)cc(Cl)c2)C(=O)C1=Cc1cccc(C(=O)NCCO)c1
0.73

Entry O=C(Nc1cc(Cl)cc(Cl)c1)Nc1cc(-c2cccs2)nn1-c1ccc(C(F)(F)F)cc1 needs its log10 MIC filled in; supply it.
0.79

State, in one line, measured log10 MIC of O=C(Nc1cc(C(F)(F)F)cc(C(F)(F)F)c1)Nc1nc(-c2ccc(C(F)(F)F)cc2)cs1
0.15

* * *

Item-by-item account of MIC
- Test system: Staphylococcus aureus bacteria (ATCC 9604 SV)
- test: Minimal inhibitory concentration (MIC), broth microdilution
- Type: cell-based
- condition.details: ATCC9604, Staphylococcus aureus ATCC 9604 SV, 24 h at 37° C., read-out: MIC

O=C(Nc1cc(C(F)(F)F)cc(C(F)(F)F)c1)Nc1ccnn1-c1ccc(Br)cc1 | < 0.74 µg/mL
O=C(Nc1cc(C(F)(F)F)cc(C(F)(F)F)c1)Nc1cc(-c2ccccc2)nn1-c1ccc(C(F)(F)F)cc1 | < 0.838 µg/mL
O=C(Nc1cc(C(F)(F)F)cc(C(F)(F)F)c1)Nc1c(Br)cnn1-c1ccc(Br)cc1 | > 29.3 µg/mL
Cc1cc(NC(=O)Nc2cc(C(F)(F)F)cc(C(F)(F)F)c2)n(-c2ccc(Br)cc2)n1 | < 0.761 µg/mL

Please look at this molecule and report its MIC: CN(C)C=C1C(=O)N(c2cc(Cl)cc(Cl)c2)N=C1c1ccccc1
> 9.01 µg/mL

* * *

- Test system: Staphylococcus aureus bacteria (ATCC 9604 SV)
- test: Minimal inhibitory concentration (MIC), broth microdilution
- Type: cell-based
- condition.details: Staphylococcus aureus ATCC 9604 SV, 24 h at 37° C.
The reader will find reported MIC values listed item by item below.

Take a look at these entries with their results.
O=C(Nc1cc(C(F)(F)F)cc(C(F)(F)F)c1)Nc1cc(-c2ccc(CN3CCOCC3)cc2)nn1-c1ccc(C(F)(F)F)cc1 | >32.9 µg/mL
O=C1C(=Cc2ccco2)C(c2ccccc2)=NN1c1cc(Cl)cc(Cl)c1 | >12.5 µg/mL

Now let's try a different one.
Quick one: give measured MIC for O=C(Nc1cc(Cl)cc(Cl)c1)Nc1cc(-c2ccccc2)nn1-c1ccc(Cl)cc1
>22.9 µg/mL
